- assayed_target: HCV glycoprotein E1E2-mediated membrane fusion (Hepatitis C virus genotype 1a)
- assay_remarks: cell-based
- Format: cell-based, Hepatitis C virus (strain H77)
- particulars: Cre/stop fusion system, peptide 1 µM, luciferase divided by solvent control (0.5% DMSO)
measurement_label: % of fusion (%)
# number only, unit % dropped from output

Q: Value wanted: % of fusion (HCV glycoprotein E1E2-mediated membrane fusion (Hepatitis C virus genotype 1a)) of entry SVP TTTIRRHVDLLV GAAALC SAMYVGDLC [HCV-5, 30-mer of overlapping E1E2 peptide library]
Result: 84.7

Q: Look up % of fusion with HCV glycoprotein E1E2-mediated membrane fusion (Hepatitis C virus genotype 1a) for this substance: FNSSGCPERMASCSPIDAFAQGWGPITYNE [HCV-18, 30-mer of overlapping E1E2 peptide library]
Result: 70.8

Q: Could you share what % of fusion was measured for SP TAALVVSQLLRIP QAVVDMVAGAHWGVL [HCV-10, 30-mer of overlapping E1E2 peptide library] , tested on HCV glycoprotein E1E2-mediated membrane fusion (Hepatitis C virus genotype 1a)?
Result: 78.8

Q: Request body: readout % of fusion, system HCV glycoprotein E1E2-mediated membrane fusion (Hepatitis C virus genotype 1a), query CTWMNSTGF TKTC GGP P CNIGGI GNKTLTC [HCV-25, 30-mer of overlapping E1E2 peptide library] . Return the value.
Result: 87.4

Q: Could you share what % of fusion was measured for YEVRNVSGVYHVTNDCSNAS IVYEAADMIM [HCV-1, 30-mer of overlapping peptide library covering full-length E1E2 of HCV strain H77] , tested on HCV glycoprotein E1E2-mediated membrane fusion (Hepatitis C virus genotype 1a)?
Result: 56.4

Q: Item PPCNIGGI GNKTLTCP TDCFRKHP EATYTK [HCV-26, 30-mer of overlapping E1E2 peptide library] with HCV glycoprotein E1E2-mediated membrane fusion (Hepatitis C virus genotype 1a) - % of fusion?
Result: 121.6

Q: Provide the documented % of fusion with HCV glycoprotein E1E2-mediated membrane fusion (Hepatitis C virus genotype 1a) as the system for NGS WHINR TALNCNDSLNTGFLAALFYVHK [HCV-16, 30-mer of overlapping E1E2 peptide library]
Result: 64.2

Q: Hello, I am looking for reported % of fusion with HCV glycoprotein E1E2-mediated membrane fusion (Hepatitis C virus genotype 1a) for LYGIGS AVVSFAIKWEYVLLLFLLLADARV [HCV-35, 30-mer of overlapping E1E2 peptide library] . Could you help?
Result: 40.0

Q: Notebook: pull reported % of fusion for HCV glycoprotein E1E2-mediated membrane fusion (Hepatitis C virus genotype 1a), entry LIVMLLF AGVDGGTYVTGGTMAKNTLGI TS [HCV-13, 30-mer of overlapping E1E2 peptide library]
Result: 60.1

Q: Write down the reported % of fusion of P YRLWHYP CTVNFTIFKVRMYVGGVEHRLE [HCV-29, 30-mer of overlapping E1E2 peptide library] , test system: HCV glycoprotein E1E2-mediated membrane fusion (Hepatitis C virus genotype 1a).
Result: 83.2

###

- assayed_target: HCV glycoprotein E1E2-mediated membrane fusion (Hepatitis C virus genotype 1a, UniProt P27958)
- Sequence (P27958 384-746): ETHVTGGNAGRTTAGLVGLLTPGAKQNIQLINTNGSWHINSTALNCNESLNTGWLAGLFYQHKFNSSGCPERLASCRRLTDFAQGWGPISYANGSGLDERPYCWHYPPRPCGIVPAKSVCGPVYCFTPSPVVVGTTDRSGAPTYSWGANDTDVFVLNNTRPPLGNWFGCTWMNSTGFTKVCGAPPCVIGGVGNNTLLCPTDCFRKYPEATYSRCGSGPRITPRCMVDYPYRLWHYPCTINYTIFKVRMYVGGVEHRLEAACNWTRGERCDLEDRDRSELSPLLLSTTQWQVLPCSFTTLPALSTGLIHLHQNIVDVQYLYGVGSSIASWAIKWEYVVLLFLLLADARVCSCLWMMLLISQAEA
- Sequence (P27958 192-383): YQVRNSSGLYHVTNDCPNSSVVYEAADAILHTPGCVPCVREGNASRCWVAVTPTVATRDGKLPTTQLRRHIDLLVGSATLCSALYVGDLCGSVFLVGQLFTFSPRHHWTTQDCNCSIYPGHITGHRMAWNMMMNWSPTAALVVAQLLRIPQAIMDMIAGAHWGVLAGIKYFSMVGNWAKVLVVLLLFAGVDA
- assay_remarks: cell-based
- Format: cell-based, Hepatitis C virus (strain H77)
- particulars: Cre/stop fusion system, peptide 1 µM, luciferase divided by solvent control (0.5% DMSO)
Reported % of fusion by item:
Response body: numeric value in %, unit text excluded.

Solved cases (2 shown):
{"substance": "QAVVDMVAGAHWGVLAGLAYYSMVGNWAKV [HCV-11, 30-mer of overlapping E1E2 peptide library]", "% of fusion [%]": 121.6}
{"substance": "RHETVQDCNCSIYP GHVTGHRMAWDMMMNW [HCV-8, 30-mer of overlapping E1E2 peptide library]", "% of fusion [%]": 76.9}

Q: Quick one: % of fusion for CGS GP WLTP RCLVHYP YRLWHYP CTVNFTI [HCV-28, 30-mer of overlapping E1E2 peptide library] ?
Result: 82.2
